assayedTarget: human ferroportin (SLC40A1) (Homo sapiens, UniProt Q9NP59)
Sequence (Q9NP59 1-571): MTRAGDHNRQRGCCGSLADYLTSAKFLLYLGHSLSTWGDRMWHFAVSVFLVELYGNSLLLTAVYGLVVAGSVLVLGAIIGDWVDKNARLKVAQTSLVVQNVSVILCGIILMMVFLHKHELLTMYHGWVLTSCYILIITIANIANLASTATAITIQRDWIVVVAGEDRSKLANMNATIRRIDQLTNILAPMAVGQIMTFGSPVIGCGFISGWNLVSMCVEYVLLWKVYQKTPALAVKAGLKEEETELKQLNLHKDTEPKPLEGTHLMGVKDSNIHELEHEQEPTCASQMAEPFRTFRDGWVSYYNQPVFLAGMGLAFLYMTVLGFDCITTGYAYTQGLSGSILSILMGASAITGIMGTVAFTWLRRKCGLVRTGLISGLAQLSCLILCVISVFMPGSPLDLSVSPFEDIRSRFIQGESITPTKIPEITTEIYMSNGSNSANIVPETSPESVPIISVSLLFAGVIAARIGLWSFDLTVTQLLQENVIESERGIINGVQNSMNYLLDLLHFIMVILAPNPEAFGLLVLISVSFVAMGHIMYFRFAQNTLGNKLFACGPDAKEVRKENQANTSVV
methodNotes: FPN activity assay: internalization/degradation of ferroportin-GFP in stably transfected HEK293 cells (decrease in GFP fluorescence)
particulars: compound incubated at least 18 hours
Numbered stars: 1 amine (or outer) side, 2 acyl side, 3 side chain; on linkers, the order of the positions; unused ones are H or OH. Bridge positions count the residues as written; N and C are the ends. Square brackets hold non-standard residues; d marks the D form. Side chains are listed from the residue outwards. Peptide text beside a SMILES is read from it. * marks the point of attachment. Dip = N[C@H](C(=O)O)C(c1ccccc1)c1ccccc1; Hag = O=C([C@H](CCC=[*:3])N[*:1])[*:2]; Palmitoyl = CCCCCCCCCCCCCCCC(=O)*; tBuAla = CC(C)(C)C[C@H](N)C(=O)O; β3hF = N[C@H](CC(=O)O)Cc1ccccc1; AllylGly = C=CC[C@H](N)C(=O)O; Isovaleryl = CC(C)CC(=O)*; Ahx = NCCCCCC(=O)O; GABA = NCCCC(=O)O
assayReadout: IC50

compound="CCCCCCCCCCCCCCCC(=O)NCCCCCC(=O)NCCCC[C@H](NC(=O)C[C@H](Cc1ccccc1)NC(=O)[C@@H]1CCC=CCC[C@H](NC(=O)CC(C)C)C(=O)N[C@@H]([C@@H](C)O)C(=O)N[C@@H](Cc2c[nH]cn2)C(=O)N[C@@H](C)C(=O)N2CCC[C@H]2C(=O)N[C@@H](C)C(=O)N[C@@H]([C@@H](C)CC)C(=O)N1)C(=O)N[C@H](CCCCN)C(N)=O [Compd 43] (Isovaleryl-[Hag]THAPAI[Hag][β3hF]K([Ahx-Palmitoyl])[dK]-NH2; staple 1-8)" assayvalue="> 500 nM"
compound="CCCCCCCCCCCCCCCC(=O)NCCCCCC(=O)NCCCC[C@H](NC(=O)C[C@H](Cc1ccccc1)NC(=O)[C@@H]1CCC=CCC[C@H](NC(=O)CC(C)C)C(=O)N(C)[C@@H]([C@@H](C)O)C(=O)N[C@@H](Cc2c[nH]cn2)C(=O)N[C@@H](C(c2ccccc2)c2ccccc2)C(=O)N2CCC[C@H]2C(=O)N[C@@H](C)C(=O)N[C@@H]([C@@H](C)CC)C(=O)N1)C(=O)N[C@H](CCCCN)C(N)=O [Compd 49]" assayvalue="10 to 100 nM"
compound="CCCCCCCCCCCCCCCC(=O)NCCCCCC(=O)NCCCC[C@H](NC(=O)C[C@H](Cc1ccccc1)NC(=O)[C@@H]1CCC=CCC[C@H](NC(=O)CC(C)C)C(=O)N[C@@H]([C@@H](C)O)C(=O)N[C@@H](Cc2c[nH]cn2)C(=O)N[C@@H](C(c2ccccc2)c2ccccc2)C(=O)N2CCC[C@H]2C(=O)N[C@@H](C)C(=O)N[C@@H](CC(C)(C)C)C(=O)N1)C(=O)N[C@H](CCCCN)C(N)=O [Compd 63] (Isovaleryl-[Hag]TH[Dip]PA[tBuAla][Hag][β3hF]K([Ahx-Palmitoyl])[dK]-NH2; staple 1-8)" assayvalue="1 to 10 nM"
compound="CCCCCCCCCCCCCCCC(=O)NCCCCCC(=O)NCCCC[C@H](NC(=O)[C@H](CC(C)(C)C)NC(=O)[C@@H]1CCC=CCC[C@H](NC(=O)CC(C)C)C(=O)N[C@@H]([C@@H](C)O)C(=O)N[C@@H](Cc2c[nH]cn2)C(=O)N[C@@H](C(c2ccccc2)c2ccccc2)C(=O)N2CCC[C@H]2C(=O)N[C@@H](C)C(=O)N[C@@H]([C@@H](C)CC)C(=O)N1)C(=O)N[C@H](CCCCN)C(N)=O [Compd 64] (Isovaleryl-[Hag]TH[Dip]PAI[Hag][tBuAla]K([Ahx-Palmitoyl])[dK]-NH2; staple 1-8)" assayvalue="10 to 100 nM"
compound="CCCCCCCCCCCCCCCC(=O)NCCCCCC(=O)NCCCC[C@H](NC(=O)C[C@H](Cc1ccccc1)NC(=O)[C@@H](CCCCN)NC(=O)[C@@H](NC(=O)[C@@H]1CCC=CC[C@H](NC(=O)[C@H](Cc2c[nH]cn2)NC(=O)[C@@H](NC(=O)[C@H](CCC(=O)O)NC(=O)CC(C)C)[C@@H](C)O)C(=O)N2CCC[C@H]2C(=O)N1)[C@@H](C)CC)C(=O)N[C@H](CCCCN)C(N)=O [Compd 4] (Isovaleryl-ETH[AllylGly]P[Hag]I[dK][β3hF]K([Ahx-Palmitoyl])[dK]-NH2; staple 4-6)" assayvalue="> 500 nM"
compound="CCCCCCCCCCCCCCCC(=O)NCCCCCC(=O)NCCCC[C@H](NC(=O)C[C@H](Cc1ccccc1)NC(=O)[C@@H]1CCCC=CCCC[C@@H](NC(=O)CC(C)C)C(=O)N[C@@H]([C@@H](C)O)C(=O)N[C@@H](Cc2c[nH]cn2)C(=O)N[C@@H](C(c2ccccc2)c2ccccc2)C(=O)N2CCC[C@H]2C(=O)N[C@@H](C)C(=O)N[C@@H]([C@@H](C)CC)C(=O)N1)C(=O)N[C@H](CCCCN)C(N)=O [Compd 70]" assayvalue="10 to 100 nM"
compound="CCCCCCCCCCCCCCCC(=O)NCCCCCC(=O)NCCCC[C@H](NC(=O)C[C@H](Cc1ccccc1)NC(=O)[C@@H]1CCC=CCC[C@H](NC(=O)CC(C)C)C(=O)N[C@@H](CC(C)(C)C)C(=O)N[C@@H](Cc2c[nH]cn2)C(=O)N[C@@H](C(c2ccccc2)c2ccccc2)C(=O)N2CCC[C@H]2C(=O)N[C@@H](C)C(=O)N[C@@H]([C@@H](C)CC)C(=O)N1)C(=O)N[C@H](CCCCN)C(N)=O [Compd 58] (Isovaleryl-[Hag][tBuAla]H[Dip]PAI[Hag][β3hF]K([Ahx-Palmitoyl])[dK]-NH2; staple 1-8)" assayvalue="> 500 nM"
compound="CCCCCCCCCCCCCCCC(=O)NCCCCCC(=O)NCCCC[C@H](NC(=O)C[C@H](Cc1ccccc1)NC(=O)[C@@H]1CCC=CCC[C@H](NC(=O)[C@@H]2CCCN2C(=O)[C@@H](NC(=O)[C@H](Cc2c[nH]cn2)NC(=O)[C@@H](NC(=O)[C@H](CCC(=O)O)NC(=O)CC(C)C)[C@@H](C)O)C(c2ccccc2)c2ccccc2)C(=O)N[C@@H]([C@@H](C)CC)C(=O)N1)C(=O)N[C@H](CCCCN)C(N)=O [Compd 6] (Isovaleryl-ETH[Dip]P[Hag]I[Hag][β3hF]K([Ahx-Palmitoyl])[dK]-NH2; staple 6-8)" assayvalue="10 to 100 nM"
compound="CCCCCCCCCCCCCCCC(=O)NCCCCCC(=O)NCCCC[C@H](NC(=O)C[C@H](Cc1ccccc1)NC(=O)[C@@H]1CCC=CCC[C@H](NC(=O)CC(C)C)C(=O)N[C@@H]([C@@H](C)O)C(=O)N[C@@H](Cc2c[nH]cn2)C(=O)N[C@@H](C(c2ccccc2)c2ccccc2)C(=O)N2CCC[C@H]2C(=O)NCCCC(=O)N1)C(=O)N[C@H](CCCCN)C(N)=O [Compd 66] (Isovaleryl-[Hag]TH[Dip]P[GABA][Hag][β3hF]K([Ahx-Palmitoyl])[dK]-NH2; staple 1-7)" assayvalue="10 to 100 nM"
